Recorded TGI, one value per entry.
tested on: LXFL 529 NSCLC; experiment: NCI tumour cell line growth inhibition, 48 h

COMPOUND	SYSTEM	VALUE_OBSERVED
c1ccc2[nH]c(CNc3ccc(C4C[Se]N=N4)cc3)nc2c1 (stereo not drawn)	LXFL 529 NSCLC	67.7 µM
O=C(CC1(O)C(=O)Nc2c(Cl)ccc(Cl)c21)c1ccc(Cl)cc1Cl (stereo not drawn)	LXFL 529 NSCLC	29.3 µM
COc1ccccc1NC(=O)/C(=C/c1ccccc1)C(C)=O	LXFL 529 NSCLC	> 100 µM
CC(C)(C)c1ccc(OC2CCO2)cc1 (stereo not drawn)	LXFL 529 NSCLC	> 100 µM
N.N.N.N.N.O=S(=O)([O-])S(=O)(=O)[O-].[Co+3]	LXFL 529 NSCLC	> 100 µM

// fetch TGI; item: COc1cc(C2c3cc4c(cc3[C@@H](Nc3ccc5c(c3)OCCO5)C3COC(=O)[C@H]23)OCO4)cc(OC)c1O (stereo partly drawn) ; system: LXFL 529 NSCLC
> 100 µM

// fetch TGI; item: `Cc1ccccc1/C=C/C(=O)c1ccccc1` ; system: LXFL 529 NSCLC
38.6 µM

// fetch TGI; item: O=c1[nH]c2cc([N+](=O)[O-])ccc2nc1/C(=N\Nc1ccccc1)C(O)c1ccc2c(c1)OCO2 (stereo not drawn) ; system: LXFL 529 NSCLC
> 100 µM

// fetch TGI; item: `COc1ccc(/C=N/n2c(C)nc3c(sc(=S)n3-c3ccccc3)c2=O)cc1` ; system: LXFL 529 NSCLC
> 100 µM

// fetch TGI; item: CCOC(=O)C1(Cc2ccc3ccccc3c2)CCCCC(=O)N1 (stereo not drawn) ; system: LXFL 529 NSCLC
> 100 µM

// fetch TGI; item: CCCCCCC(C)CCCCCCCCCCC(=O)O (stereo not drawn) ; system: LXFL 529 NSCLC
> 100 µM

// fetch TGI; item: C=CCNC(=O)N(CCC)CCCC(NC(C)=O)C(=O)NCc1ccccc1 (stereo not drawn) ; system: LXFL 529 NSCLC
> 100 µM

// fetch TGI; item: `O=C1c2cccc(O)c2C(=O)c2c(O)cc(CO)cc21` ; system: LXFL 529 NSCLC
> 100 µM
